system: Mycobacterium tuberculosis; assay: Anti-mycobacterial activity against Mycobacterium tuberculosis H37Rv incubated for 5 days by alamar blue assay; type: functional; settings: 120 h, time 5 day
Flag rule - MIC less than 20 µg/mL flags yes; the remaining entries get no.

Input line: State whether 20 µg/mL exceeds MIC recorded for `COc1ccc(-c2cn3cc(C4=CCN(C(=O)C(C)(C)C)CC4)ccc3n2)cc1OC` .
Output line: no

Input line: State whether 20 µg/mL exceeds MIC recorded for `COc1ccc(-c2cn3cc(C4=CCN(S(=O)(=O)c5ccc(C)cc5)CC4)ccc3n2)cc1OC` .
Output line: no

Input line: State whether 20 µg/mL exceeds MIC recorded for `COc1ccc(-c2cn3cc(C4=CCN(C(=O)c5ccccn5)CC4)ccc3n2)cc1OC` .
Output line: no

Input line: State whether 20 µg/mL exceeds MIC recorded for `COc1ccc(-c2cn3cc(C4=CCN(C(=O)c5cccs5)CC4)ccc3n2)cc1OC` .
Output line: no

Input line: State whether 20 µg/mL exceeds MIC recorded for `COc1ccc(-c2cn3cc(C4=CCN(C(=O)c5cccc(F)c5)CC4)ccc3n2)cc1OC` .
Output line: no

// provenance: ChEMBL document CHEMBL5107963
